Provenance of the data: patent US12502386B2

Test system: Con-NCI-H82 cell
Assay: CellTiter-Glo cell viability, Con-NCI-H82 cell (empty-vector control)
Type: cell-based, human
Conditions: Homo sapiens, NCI-H82, NCI-H82 transfected with empty virus vector (control), intracellular ATP, read-out: inhibitory effect on Con-NCI-H82 (IC50)
experimental readout: IC50 (nM)

These recorded examples may help you get a feel for the data.
COc1ccc2c(c1OCCCCl)C(C)N1CCc3cc4c(cc3C1=C2)OCO4 (centres unmarked) ... 2360
C1=C2c3cc4c(cc3CCN2C(C2CCCC2)c2cc3c(cc21)OCO3)OCO4 (centres unmarked) ... 5640

[P] COc1ccc2c(c1OC)C(C1CCCC1)N1CCc3cc4c(cc3C1=C2CCc1ccccc1)OCO4 (centres unmarked)
[Q] CCCC1=C2c3cc4c(cc3CCN2C(C(Cl)(Cl)Cl)c2c1ccc1c2OCO1)OCO4 (centres unmarked)
[R] CCCCCCOc1c(OC)ccc2c1C(C(Cl)(Cl)Cl)N1CCc3cc4c(cc3C1=C2)OCO4 (centres unmarked)
Q: Sort ascending by IC50. # the answer lists labels in the order requested
A: R, P, Q
(R: 490 nM, P: 1340 nM, Q: 3280 nM)

* * *

Test system: sh-DNMT1 NCI-H82 cell
Assay: CellTiter-Glo cell viability, sh-DNMT1 NCI-H82 cell (DNMT1 knocked down)
Assay type: cell-based, human
Conditions: Homo sapiens, NCI-H82, NCI-H82 with DNMT1 knocked down by shRNA, intracellular ATP, read-out: inhibitory effect on sh-DNMT1 NCI-H82 (IC50)
experimental readout: IC50 (µM)

These recorded examples may help you get a feel for the data.
COc1ccc2c(c1OC)C(C)N1CCc3cc4c(cc3C1=C2CCCc1ccccc1)OCO4 (centres unmarked) ... 4.34
COc1ccc2c(c1OC)C(CC(C)=O)N1CCc3cc4c(cc3C1=C2)OCO4 (centres unmarked) ... 4.11
CCCC1c2c(ccc3c2OCO3)C=C2c3cc4c(cc3CCN21)OCO4 (centres unmarked) ... 4.51

[a] CCCCCCC1c2c(ccc3c2OCO3)C=C2c3cc4c(cc3CCN21)OCO4 (centres unmarked)
[b] COc1ccc2c(c1OCCCCCCNC(=O)OC(C)(C)C)C(C(Cl)(Cl)Cl)N1CCc3cc4c(cc3C1=C2)OCO4 (centres unmarked)
[c] COc1ccc2c(c1OCCCCCCBr)C(C1CCCC1)N1CCc3cc4c(cc3C1=C2)OCO4 (centres unmarked)
[d] COc1ccc2c(c1OCCN(C)C)C(C(Cl)(Cl)Cl)N1CCc3cc4c(cc3C1=C2)OCO4 (centres unmarked)
Q: Sort ascending by IC50. # the answer lists labels in the order requested
A: a, b, c, d
(a: 2.12 µM, b: 3.44 µM, c: 5.32 µM, d: 17.9 µM)

[A] COc1ccc2c(c1N1CCCCCC1)CN1CCc3cc4c(cc3C1=C2)OCO4
[B] COc1ccc2c(c1OC)C(C1CCCCC1=O)N1CCc3cc4c(cc3C1=C2)OCO4 (centres unmarked)
Q: Compare the recorded IC50 of A and B ; state which is larger. State your choice using its label.
A: B
(B: 3.96 µM, A: 1.98 µM)

* * *

Tested on: sh-DNMT1 NCI-H82 cell
Experiment: CellTiter-Glo cell viability, sh-DNMT1 NCI-H82 cell (DNMT1 knocked down)
Assay type: cell-based, human
Settings: Homo sapiens, NCI-H82, NCI-H82 with DNMT1 knocked down by shRNA, intracellular ATP, read-out: inhibitory effect on sh-DNMT1 NCI-H82 (IC50)
experimental readout: IC50 (µM)

These recorded examples may help you get a feel for the data.
CCCCCCC1=C2c3cc4c(cc3CCN2C(C(Cl)(Cl)Cl)c2c1ccc(OC)c2OC)OCO4 (stereo not drawn) [AB35508] ... 2.98
[2H]C1([2H])Cc2cc3c(cc2C2=Cc4ccc(OC)c(OC)c4CN21)OCO3 [AB36476] ... 7.34
CCCCCC1=C2c3cc4c(cc3CCN2C(C)c2c1ccc(OC)c2OC)OCO4 (stereo not drawn) [AB35422] ... 4.94
COc1ccc2c(c1N1CCN(C)CC1)C(C1CCCC1)N1CCc3cc4c(cc3C1=C2)OCO4 (stereo not drawn) [AB35519] ... 4.68

[P] CCCCN1CCN(c2c(OC)ccc3c2C(C(Cl)(Cl)Cl)N2CCc4cc5c(cc4C2=C3)OCO5)CC1 (stereo not drawn) [AB35445]
[Q] COc1ccc2c(c1OCCF)CN1CCc3cc4c(cc3C1=C2)OCO4 [AB35599]
Q: Identify the item whose IC50 is the smaller number: P or Q State your choice using its label.
A: Q
(Q: 6.42 µM, P: 16.4 µM)

* * *

System: Con-NCI-H82 cell
Assay: CellTiter-Glo cell viability, Con-NCI-H82 cell (empty-vector control)
Assay type: cell-based, human
Conditions: Homo sapiens, NCI-H82, NCI-H82 transfected with empty virus vector (control), intracellular ATP, read-out: inhibitory effect on Con-NCI-H82 (IC50)
experimental readout: IC50 (nM)

ClC(Cl)(Cl)C1c2c(ccc3c2OCO3)C=C2c3cc4c(cc3CCN21)OCO4 (stereo not shown) [AB35421] ... 5770
COc1ccc2c(c1OC)CN1CCc3cc4c(cc3C1=C2Cc1ccc(OC(F)(F)F)cc1)OCO4 [AB31866] ... 820

[P] COc1ccc2c(c1OCCCCCCCl)C(C)N1CCc3cc4c(cc3C1=C2)OCO4 (stereo not shown) [AB31888]
[Q] COc1ccc2c(c1OCCCCCCCl)C(C(Cl)(Cl)Cl)N1CCc3cc4c(cc3C1=C2)OCO4 (stereo not shown) [AB35475]
Q: Identify the item whose IC50 is the smaller number: P or Q State your choice using its label.
A: Q
(Q: 1290 nM, P: 2260 nM)

* * *

Test system: Con-NCI-H82 cell
Assay: CellTiter-Glo cell viability, Con-NCI-H82 cell (empty-vector control)
Type: cell-based, human
Details: Homo sapiens, NCI-H82, NCI-H82 transfected with empty virus vector (control), intracellular ATP, read-out: inhibitory effect on Con-NCI-H82 (IC50)
experimental readout: IC50 (nM)

These recorded examples may help you get a feel for the data.
COc1ccc2c(c1OCCCCCCBr)C(C)N1CCc3cc4c(cc3C1=C2)OCO4 (centres unmarked) ... 1430
COc1ccc2c(c1OC)C(C)N1CCc3cc4c(cc3C1=C2CCCCc1ccccc1)OCO4 (centres unmarked) ... 820
COc1ccc2cc3n(c(=O)c2c1OC)CCc1cc2c(cc1-3)OCO2 ... 12900
COc1ccc2c(c1OC)C(C(Cl)(Cl)Cl)N1CCc3cc4c(cc3C1=C2CCCCc1ccccc1)OCO4 (centres unmarked) ... 790
COc1ccc2c(c1OC)C(n1cccc1)N1CCc3cc4c(cc3C1=C2)OCO4 (centres unmarked) ... 2560

[P] CCCCCCC1=C2c3cc4c(cc3CCN2C(C(Cl)(Cl)Cl)c2c1ccc(OC)c2OC)OCO4 (centres unmarked)
[Q] COc1ccc2c(c1OC)C(C(Cl)(Cl)Cl)N1CCc3cc4c(cc3C1=C2Cc1ccccn1)OCO4 (centres unmarked)
[R] COc1ccc2c(c1OCCCCCCNC(=O)OC(C)(C)C)C(C)N1CCc3cc4c(cc3C1=C2)OCO4 (centres unmarked)
[S] COc1ccc2c(c1OCCBr)CN1CCc3cc4c(cc3C1=C2)OCO4
Q: Sort ascending by IC50. # the answer lists labels in the order requested
A: S, P, R, Q
(S: 380 nM, P: 740 nM, R: 1140 nM, Q: 26200 nM)

* * *

Test system: sh-DNMT1 NCI-H82 cell
Assay: CellTiter-Glo cell viability, sh-DNMT1 NCI-H82 cell (DNMT1 knocked down)
Format: cell-based, human
Settings: Homo sapiens, NCI-H82, NCI-H82 with DNMT1 knocked down by shRNA, intracellular ATP, read-out: inhibitory effect on sh-DNMT1 NCI-H82 (IC50)
pIC50: −log10 of the molar value.
experimental readout: pIC50

These recorded examples may help you get a feel for the data.
COc1ccc2c(c1N1CCN(C)CC1)C(C(Cl)(Cl)Cl)N1CCc3cc4c(cc3C1=C2)OCO4 (stereo not drawn) ... 4.88
COc1ccc2c(c1OCCCCCCCl)C(C(Cl)(Cl)Cl)N1CCc3cc4c(cc3C1=C2)OCO4 (stereo not drawn) ... 5.40
COc1ccc2c(c1OC)C(C)N1CCc3cc4c(cc3C1=C2CCCc1ccccc1)OCCO4 (stereo not drawn) ... 5.68
COc1ccc2c(c1OCCCF)CN1CCc3cc4c(cc3C1=C2)OCO4 ... 5.39
CCCCC1=C2c3cc4c(cc3CCN2C(C(Cl)(Cl)Cl)c2c1ccc(OC)c2OC)OCO4 (stereo not drawn) ... 5.15

[P] COc1ccc2c(c1Cl)CN1CCc3cc4c(cc3C1=C2)OCO4
[Q] COc1ccc2c(c1OC)C(c1ccccc1)N1CCc3cc4c(cc3C1=C2)OCO4 (stereo not drawn)
[R] COc1ccc2c(c1OC)CN1CCc3cc4c(cc3C1=C2Cc1ccc(C(C)C)cc1)OCO4
Q: List items by pIC50 in falling order. # the answer lists labels in the order requested
A: R, P, Q
(R: 5.60, P: 5.08, Q: 4.88)
